Target: T1, human GFRα3 expressed with a C-terminal myc-myc-hexahistidine tag (human, UniProt O60609 32-374, biotinylated (sites not given) in ELISA format 2 and in the Octet cross-competition; not in SPR)
T1 construct: also called hGFRα3-mmh; hGFRα3-mmH
T1 sequence (O60609 other isoform, or with tags, fused parts or gaps limits assumed): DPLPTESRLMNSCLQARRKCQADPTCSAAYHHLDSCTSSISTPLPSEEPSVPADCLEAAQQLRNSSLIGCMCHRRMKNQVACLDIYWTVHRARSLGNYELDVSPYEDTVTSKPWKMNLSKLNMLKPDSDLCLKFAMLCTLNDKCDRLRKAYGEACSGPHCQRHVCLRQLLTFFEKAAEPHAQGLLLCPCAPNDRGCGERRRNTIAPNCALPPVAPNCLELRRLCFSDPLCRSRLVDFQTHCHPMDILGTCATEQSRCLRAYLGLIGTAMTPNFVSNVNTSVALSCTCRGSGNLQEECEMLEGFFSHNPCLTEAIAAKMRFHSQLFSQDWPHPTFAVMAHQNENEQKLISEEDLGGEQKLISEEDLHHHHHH
Assay: SPR, Ab captured, 37C
MEASURED PROPERTY: koff (s⁻¹)
Provide only the numeric value, understood in s⁻¹.

>>> number("H4H2344S (antibody, human IgG4, V domains shown, human IgG4 Fc (H4H)) VH: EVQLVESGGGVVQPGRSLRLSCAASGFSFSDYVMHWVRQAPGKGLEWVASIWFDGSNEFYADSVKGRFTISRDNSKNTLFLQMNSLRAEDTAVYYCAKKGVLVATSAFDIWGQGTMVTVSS VL: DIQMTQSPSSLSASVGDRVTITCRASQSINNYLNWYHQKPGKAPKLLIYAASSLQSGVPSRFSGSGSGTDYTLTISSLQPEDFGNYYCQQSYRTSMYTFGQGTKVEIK")
0.000724
>>> number("H4H2243N2 (antibody, human IgG4, V domains shown, human IgG4 Fc (H4H)) VH: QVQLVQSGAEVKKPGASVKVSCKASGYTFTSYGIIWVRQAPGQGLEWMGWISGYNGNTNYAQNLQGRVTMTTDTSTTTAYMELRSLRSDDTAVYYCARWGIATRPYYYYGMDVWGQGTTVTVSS VL: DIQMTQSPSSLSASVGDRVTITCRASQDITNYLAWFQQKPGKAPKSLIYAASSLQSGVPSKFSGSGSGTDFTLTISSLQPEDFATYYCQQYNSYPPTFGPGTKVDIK")
0.00244

Request: Any idea what its koff is? The binder is H4H2342P (antibody, human IgG4, V domains shown, human IgG4 Fc (H4H)) VH: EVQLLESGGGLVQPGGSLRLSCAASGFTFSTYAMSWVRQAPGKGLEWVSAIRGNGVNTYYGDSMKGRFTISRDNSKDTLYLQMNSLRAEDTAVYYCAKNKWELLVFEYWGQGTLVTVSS VL: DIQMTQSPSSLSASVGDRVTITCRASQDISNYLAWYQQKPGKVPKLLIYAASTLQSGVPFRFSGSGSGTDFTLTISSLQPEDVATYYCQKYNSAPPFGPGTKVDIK
Result: 0.000671
